Molecular target: T1, human CLDN6 (human, UniProt P56747 1-220)
T1 construct: In the flow cytometry it was expressed on 293T cells from human CLDN6/pCMV-Entry bought from OriGene; It was also expressed on CHO-K1 cells by cDNA transfection, and the endogenous protein was immunoprecipitated from NTERA-2 cell lysate; also called claudin-6; hCLDN6
T1 sequence: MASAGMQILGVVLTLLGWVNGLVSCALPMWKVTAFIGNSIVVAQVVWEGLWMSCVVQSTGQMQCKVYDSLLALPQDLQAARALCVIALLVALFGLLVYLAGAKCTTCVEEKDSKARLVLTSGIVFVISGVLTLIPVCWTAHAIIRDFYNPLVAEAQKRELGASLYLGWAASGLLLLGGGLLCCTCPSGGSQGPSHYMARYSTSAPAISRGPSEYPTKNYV
Test: flow cytometry on 293T cells transiently transfected with human CLDN6

>  <binder>
humanized anti-CLDN6 antibody H2L4 (antibody, human IgG1, kappa, L234A L235A, V domains shown, Human IgG1 LALA constant region and human kappa light chain; also called H2L4 antibody) VH: EVQLVQSGAEVKKPGASVKVSCKTSGYTFTEYTMHWVRQAPGKSLEWMGGVNPNSGDTSYAQKFQGRVTITADTSTSTAYMELSSLRSEDTAVYYCARPGGYDVGYYAMDYWGQGTLVTVSS VL: DIQMTQSPSSLSASVGDRVTITCRASQDINNYLNWYQQKPGGAVKLLIYFTSRLHSGVPSRFSGSGSGTDYTLTISSLQPEDFATYYCQQGNTLPWTFGGGTKVEIKR

>  <binding result>
binds

$$$$
>  <binder>
humanized anti-CLDN6 antibody H1L1 (antibody, human IgG1, kappa, L234A L235A, V domains shown, Heavy chain hH1 with light chain hL1; Human IgG1 LALA constant region and human kappa light chain; also called H1L1 antibody) VH: QVQLVQSGAEVKKPGASVKVSCKASGYTFTEYTMHWVRQAPGQGLEWMGGVNPNSGDTSYAQKFQGRVTITADTSTSTAYMELSSLRSEDTAVYYCARPGGYDVGYYAMDYWGQGTLVTVSS VL: DIQMTQSPSSLSASVGDRVTITCRASQDINNYLNWYQQKPGKAPKLLIYFTSRLHSGVPSRFSGSGSGTDYTLTISSLQPEDFATYYCQQGYPLPWTFGQGTKVEIKR

>  <binding result>
binds

$$$$
>  <binder>
humanized anti-CLDN6 antibody H1L3 (antibody, human IgG1, kappa, L234A L235A, V domains shown, Heavy chain hH1 with light chain hL3; Human IgG1 LALA constant region and human kappa light chain; also called H1L3 antibody) VH: QVQLVQSGAEVKKPGASVKVSCKASGYTFTEYTMHWVRQAPGQGLEWMGGVNPNSGDTSYAQKFQGRVTITADTSTSTAYMELSSLRSEDTAVYYCARPGGYDVGYYAMDYWGQGTLVTVSS VL: DIQMTQSPSSLSASVGDRVTITCRASQDINNYLNWYQQKPGGAVKLLIYFTSRLHSGVPSRFSGSGSGTDYTLTISSLQPEDFATYYCQQGYPLPWTFGGGTKVEIKR

>  <binding result>
binds

$$$$
